measured.target: Androgen Receptor (Homo sapiens)
Construct: endogenous in cells; host or cells: VCaP cells
test.details: Androgen Receptor ELISA assay (PathScan AR ELISA) in VCaP cells: AR degradation, Dmax and DC50
Type: cell-based
test.settings: VCaP, read-out: VCaP Dmax (%)
So I've got a bunch of compounds here, and I need their Dmax values.

Briefly, Dmax measured for Cc1ncsc1-c1ccc(CNC(=O)[C@@H]2C[C@@H](O)CN2C(=O)[C@@H](NC(=O)COC[C@H](O)CCOc2ccc(-c3ccc(N4C(=S)N(c5ccc(C#N)c(C(F)(F)F)c5)C(=O)C4(C)C)cc3)cc2)C(C)(C)C)cc1 : 51 to 70%

Briefly, Dmax measured for Cc1ncsc1-c1ccc(CNC(=O)[C@@H]2C[C@@H](O)CN2C(=O)[C@@H](NC(=O)CCc2ccc(OCCOc3ccc(N4C(=S)N(c5ccc(C#N)c(C(F)(F)F)c5)C(=O)C4(C)C)cc3)cc2)C(C)(C)C)cc1 : 51 to 70%

Briefly, Dmax measured for Cc1ncsc1-c1ccc([C@H](C)NC(=O)C2C[C@@H](O)CN2C(=O)C(c2cc(OCCN(C)[C@H](C(=O)NC(C(=O)N3CCN(c4ccc(C(=O)NC5C(C)(C)C(Oc6ccc(C#N)c(Cl)c6)C5(C)C)cc4)CC3)C(C)C)C(C)C)no2)C(C)C)cc1 (stereo partly drawn) : > 71%

Briefly, Dmax measured for Cc1ncsc1-c1ccc(CNC(=O)[C@@H]2C[C@@H](O)CN2C(=O)[C@@H](NC(=O)OCCOCCOc2ccc(-c3ccc(N4C(=S)N(c5ccc(C#N)c(C(F)(F)F)c5)C(=O)C4(C)C)cc3)cc2)C(C)(C)C)cc1 : 26 to 50%

Briefly, Dmax measured for Cc1ncsc1-c1ccc(CNC(=O)[C@@H]2C[C@@H](O)CN2C(=O)[C@@H](NC(=O)COCCCOCCC(C)(C)CCOc2ccc(N3C(=S)N(c4ccc(C#N)c(C(F)(F)F)c4)C(=O)C3(C)C)cc2)C(C)(C)C)cc1 : 26 to 50%

Briefly, Dmax measured for Cc1ncsc1-c1ccc(CNC(=O)[C@@H]2C[C@@H](O)CN2C(=O)[C@@H](NC(=O)CCCCOc2ccc(-c3ccc(N4C(=S)N(c5ccc(C#N)c(C(F)(F)F)c5)C(=O)C4(C)C)cc3)cc2)C(C)(C)C)cc1 : 26 to 50%

Briefly, Dmax measured for Cc1ncsc1-c1ccc(CNC(=O)[C@@H]2C[C@@H](O)CN2C(=O)[C@@H](NC(=O)CNCCCCOCCCOc2ccc(N3C(=S)N(c4ccc(C#N)c(C(F)(F)F)c4)C(=O)C3(C)C)cc2)C(C)(C)C)cc1 : 26 to 50%

Briefly, Dmax measured for Cc1ncsc1-c1ccc(CNC(=O)[C@@H]2C[C@@H](O)CN2C(=O)[C@@H](NC(=O)COCCOCCCCCOc2ccc(N3C(=S)N(c4ccc(C#N)c(C(F)(F)F)c4)C(=O)C3(C)C)cc2)C(C)(C)C)cc1 : > 71%

Briefly, Dmax measured for CN(C)c1ccc(CNC(=O)[C@@H]2C[C@@H](O)CN2C(=O)[C@@H](NC(=O)COCCCOCCCCCOc2ccc(N3C(=S)N(c4ccc(C#N)c(C(F)(F)F)c4)C(=O)C3(C)C)cc2)C(C)(C)C)cn1 : < 25%

###

measured.target: Androgen Receptor (Homo sapiens, UniProt P10275+P40337, T878A)
Construct: Compounds have been evaluated in this assay in LNCaP and/or VCaP cells utilizing similar protocols; endogenous in cells; host or cells: LNCaP cells
Sequence (P10275 whole entry T878A): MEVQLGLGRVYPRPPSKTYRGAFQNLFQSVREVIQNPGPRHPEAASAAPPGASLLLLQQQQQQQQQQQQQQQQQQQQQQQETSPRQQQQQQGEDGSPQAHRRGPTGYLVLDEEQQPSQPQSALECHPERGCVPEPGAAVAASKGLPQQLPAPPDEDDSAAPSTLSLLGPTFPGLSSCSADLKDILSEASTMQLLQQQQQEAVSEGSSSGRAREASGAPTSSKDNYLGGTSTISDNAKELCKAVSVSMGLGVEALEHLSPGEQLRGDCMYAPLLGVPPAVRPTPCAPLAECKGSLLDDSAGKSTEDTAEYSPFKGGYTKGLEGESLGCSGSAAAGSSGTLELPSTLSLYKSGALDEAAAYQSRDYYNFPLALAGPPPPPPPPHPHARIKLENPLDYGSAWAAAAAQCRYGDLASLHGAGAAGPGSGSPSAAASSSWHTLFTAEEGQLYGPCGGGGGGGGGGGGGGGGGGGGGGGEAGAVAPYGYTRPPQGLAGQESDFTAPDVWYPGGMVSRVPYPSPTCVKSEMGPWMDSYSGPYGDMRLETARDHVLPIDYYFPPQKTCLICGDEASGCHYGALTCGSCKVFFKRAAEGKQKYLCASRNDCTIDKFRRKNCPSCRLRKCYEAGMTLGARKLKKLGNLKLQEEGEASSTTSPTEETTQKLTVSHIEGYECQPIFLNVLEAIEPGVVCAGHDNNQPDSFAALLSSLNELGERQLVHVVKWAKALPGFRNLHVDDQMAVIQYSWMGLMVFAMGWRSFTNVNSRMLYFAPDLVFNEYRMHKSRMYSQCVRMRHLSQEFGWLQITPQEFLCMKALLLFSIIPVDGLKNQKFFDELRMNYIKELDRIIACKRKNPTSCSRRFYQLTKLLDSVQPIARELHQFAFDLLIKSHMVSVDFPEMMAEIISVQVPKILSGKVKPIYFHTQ
Sequence (P40337 whole entry): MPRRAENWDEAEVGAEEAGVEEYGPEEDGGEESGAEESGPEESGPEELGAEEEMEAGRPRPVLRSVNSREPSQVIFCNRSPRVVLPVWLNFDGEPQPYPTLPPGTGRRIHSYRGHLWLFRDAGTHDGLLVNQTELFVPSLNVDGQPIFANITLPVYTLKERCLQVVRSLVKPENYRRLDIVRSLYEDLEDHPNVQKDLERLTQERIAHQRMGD
Sequence (Q15369 whole entry partner): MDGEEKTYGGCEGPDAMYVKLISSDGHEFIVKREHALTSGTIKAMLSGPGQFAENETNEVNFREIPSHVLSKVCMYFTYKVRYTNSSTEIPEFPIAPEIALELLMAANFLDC
Sequence (Q15370 whole entry partner): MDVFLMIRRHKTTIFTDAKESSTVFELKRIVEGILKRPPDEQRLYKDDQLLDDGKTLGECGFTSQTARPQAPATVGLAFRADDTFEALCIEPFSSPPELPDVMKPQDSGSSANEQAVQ
test.details: Androgen Receptor ELISA assay (PathScan AR ELISA) in LNCaP cells: AR degradation, Dmax and DC50
Format: cell-based
test.settings: concentration that caused 50% Androgen Receptor degradation
So I've got a bunch of compounds here, and I need their DC50 values.

Briefly, DC50 measured for Cc1ncsc1-c1ccc(CNC(=O)[C@@H]2C[C@@H](O)CN2C(=O)[C@@H](NC(=O)COCCOc2ccc(-c3ccc(N4C(=S)N(c5ccc(C#N)c(C(F)(F)F)c5)C(=O)C4(C)C)cc3)cc2)C(C)(C)C)cc1 : < 50 nM

Briefly, DC50 measured for Cc1ncsc1-c1ccc(CNC(=O)[C@@H]2C[C@@H](O)CN2C(=O)[C@@H](NC(=O)COCCCOCCCCCOc2ccc(N3C(=S)N(c4ccc(C#N)c(F)c4)C(=O)C3(C)C)cc2)C(C)(C)C)cc1 : < 50 nM

Briefly, DC50 measured for Cc1ncsc1-c1ccc(CNC(=O)[C@@H]2C[C@@H](O)CN2C(=O)[C@H](C(C)C)N2Cc3ccccc3C2=O)c(OCCCOCCOCCOc2ccc(N3C(=S)N(c4ccc(C#N)c(C(F)(F)F)c4)C(=O)C3(C)C)cc2)c1 : > 501 nM

Briefly, DC50 measured for Cc1ncsc1-c1ccc(CNC(=O)[C@@H]2C[C@@H](O)CN2C(=O)[C@@H](NC(=O)c2ccccc2OCCCOc2ccc(N3C(=S)N(c4ccc(C#N)c(C(F)(F)F)c4)C(=O)C3(C)C)cc2)C(C)(C)C)cc1 : > 501 nM

Briefly, DC50 measured for Cc1ncsc1-c1ccc([C@H](C)NC(=O)[C@@H]2C[C@@H](O)CN2C(=O)[C@@H](NC(=O)COCCOCCOc2ccc(-c3ccc(N4C(=S)N(c5ccc(C#N)c(C(F)(F)F)c5)C(=O)C4(C)C)cc3F)cc2)C(C)(C)C)cc1 : < 50 nM

Briefly, DC50 measured for Cc1ncsc1-c1ccc(CNC(=O)[C@@H]2C[C@@H](O)CN2C(=O)[C@@H](NC(=O)COCCOCCOCCOc2ccc(N3C(=S)N(c4ccc([N+](=O)[O-])c(C(F)(F)F)c4)C(=O)C3(C)C)cc2)C(C)(C)C)cc1 : < 50 nM

Briefly, DC50 measured for Cc1ncsc1-c1ccc(CNC(=O)[C@@H]2C[C@@H](O)CN2C(=O)[C@@H](NC(=O)COCCOCCOCCOCCOCCOCCOc2ccc(N3C(=S)N(c4ccc(C#N)c(C(F)(F)F)c4)C(=O)C3(C)C)cc2)C(C)(C)C)cc1 : > 501 nM

Briefly, DC50 measured for Cc1ncsc1-c1ccc(CNC(=O)[C@@H]2C[C@@H](O)CN2C(=O)[C@H](C(C)C)N2Cc3ccccc3C2=O)c(OCCOCCOc2ccc(N3C(=S)N(c4ccc(C#N)c(C(F)(F)F)c4)C(=O)C3(C)C)cc2)c1 : 51 to 500 nM

Briefly, DC50 measured for Cc1ncsc1-c1ccc(CNC(=O)[C@@H]2C[C@@H](O)CN2C(=O)[C@@H](NC(=O)CCOCCOc2ccc(N3C(=S)N(c4ccc(C#N)c(C(F)(F)F)c4)C(=O)C3(C)C)cc2)C(C)(C)C)cc1 : > 501 nM

Briefly, DC50 measured for Cc1ncsc1-c1ccc(CNC(=O)[C@@H]2C[C@@H](O)CN2C(=O)[C@@H](NC(=O)COCCCCOCCN2CCC(c3ccc(N4C(=S)N(c5ccc(C#N)c(C(F)(F)F)c5)C(=O)C4(C)C)cc3)CC2)C(C)(C)C)cc1 : > 501 nM

Briefly, DC50 measured for Cc1ncsc1-c1ccc(CNC(=O)[C@@H]2C[C@@H](O)CN2C(=O)[C@H](C(C)C)N2Cc3ccccc3C2=O)c(OCCCCOCCCOc2ccc(N3C(=S)N(c4ccc(C#N)c(C(F)(F)F)c4)C(=O)C3(C)C)cc2)c1 : > 501 nM

Briefly, DC50 measured for Cc1ncsc1-c1ccc(CNC(=O)[C@@H]2C[C@@H](O)CN2C(=O)[C@@H](NC(=O)CCOCCOCCCCCOc2ccc(N3C(=S)N(c4ccc(C#N)c(C(F)(F)F)c4)C(=O)C3(C)C)cc2)C(C)(C)C)cc1 : 51 to 500 nM

Briefly, DC50 measured for CCC(=O)N[C@H](C(=O)N1C[C@H](O)C[C@H]1C(=O)NCc1ccc(-c2scnc2C)cc1OCCOCCOCCOc1ccc(N2C(=S)N(c3ccc(C#N)c(C(F)(F)F)c3)C(=O)C2(C)C)cc1)C(C)(C)C : 51 to 500 nM

Briefly, DC50 measured for Cc1ncsc1-c1ccc(CNC(=O)[C@@H]2C[C@@H](O)CN2C(=O)[C@@H](NC(=O)COCCCCOc2ccc(-c3ccc(N4C(=S)N(c5ccc(C#N)c(C(F)(F)F)c5)C(=O)C4(C)C)cc3)cc2)C(C)(C)C)cc1 : < 50 nM

Briefly, DC50 measured for Cc1ncsc1-c1ccc(CNC(=O)[C@@H]2C[C@@H](O)CN2C(=O)[C@@H](NC(=O)COCCCOCCOCCOc2ccc(N3C(=S)N(c4ccc(C#N)c(C(F)(F)F)c4)C(=O)C3(C)C)cc2)C(C)(C)C)cc1 : 51 to 500 nM

Briefly, DC50 measured for Cc1ncsc1-c1ccc(CNC(=O)[C@@H]2C[C@@H](O)CN2C(=O)[C@H](C(C)C)N2Cc3cc(CCCCOCCCOc4ccc(N5C(=S)N(c6ccc(C#N)c(C(F)(F)F)c6)C(=O)C5(C)C)cc4)ccc3C2=O)cc1 : > 501 nM

Briefly, DC50 measured for Cc1ncsc1-c1ccc(CNC(=O)[C@@H]2C[C@@H](O)CN2C(=O)[C@@H](NC(=O)CCCCOc2ccc(-c3ccc(N4C(=S)N(c5ccc(C#N)c(C(F)(F)F)c5)C(=O)C4(C)C)cc3)cc2)C(C)(C)C)cc1 : 51 to 500 nM

Source listed as patent US11427548B2.
